- System: T1, Full length recombinant HBcAg (rHBcAg) encompassing residues 1-183 (hepatitis B virus, UniProt P03146 1-183)
- T1 construct: range 1-183; also called hepatitis B virus core antigen
- T1 sequence (P03146 whole entry, the tested form may be a part): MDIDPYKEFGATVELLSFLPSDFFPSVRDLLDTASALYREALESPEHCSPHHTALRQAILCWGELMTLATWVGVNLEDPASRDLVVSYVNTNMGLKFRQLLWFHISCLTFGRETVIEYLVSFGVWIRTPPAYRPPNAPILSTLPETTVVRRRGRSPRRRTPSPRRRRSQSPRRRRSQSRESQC
- Protocol Summary: EIA, support-bound peptide, HBcAg 5 ug/ml
The entries below are paired with their reported OD at 490 nm.
Quantity Measured: OD at 490 nm

INSERT INTO measurements (binder, meas_value) VALUES
  ('ASVKLSCKASGYIFTS [ASVKLSCKASGYIFTS (SEQ. ID. No. 42)]', '3.22 OD'),
  ('KASGYIFTS [KASGYIFTS (SEQ. ID. No. 49)]', '0.237 OD'),
  ('GASVKLSCKASGYIFTS [GASVKLSCKASGYIFTS (SEQ. ID. No. 41)]', '2.86 OD');
